Molecular target: Gal(b1-4)GlcNAc(b1-3)Gal(b1-4)GlcNAc(b1-3)Gal(b1-4)GlcNAc(b1-3)Gal(b1-4)GlcNAc(b1-3)Gal(b1-4)GlcNAc(b1-2)Man(a1-3)[Gal(b1-4)GlcNAc(b1-3)Gal(b1-4)GlcNAc(b1-3)Gal(b1-4)GlcNAc(b1-3)Gal(b1-4)GlcNAc(b1-3)Gal(b1-4)GlcNAc(b1-2)Man(a1-6)]Man(b1-4)GlcNAc(b1-4)[Fuc(a1-6)]GlcNAc
Test: glycan array binding signal (z-score within array); higher = stronger binding
Details: glycan notation: IUPAC condensed, linker removed
Many of the other results were omitted from the sample, so the strongest signals are more common in it than they were.
Each entry below lists one item and its recorded glycan array binding signal (z-score) value.
Kindly provide the number alone.

Worked examples follow.
Epa20 (Candida glabrata) (protein) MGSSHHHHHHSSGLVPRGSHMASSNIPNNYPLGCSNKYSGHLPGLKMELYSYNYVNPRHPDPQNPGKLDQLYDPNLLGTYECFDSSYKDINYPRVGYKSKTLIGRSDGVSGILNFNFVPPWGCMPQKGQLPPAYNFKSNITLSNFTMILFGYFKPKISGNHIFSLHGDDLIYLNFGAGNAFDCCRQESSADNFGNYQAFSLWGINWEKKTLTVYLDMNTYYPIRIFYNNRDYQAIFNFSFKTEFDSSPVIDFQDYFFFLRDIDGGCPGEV	6.07
Epa9 (Candida glabrata), CAGL0A01386g (protein) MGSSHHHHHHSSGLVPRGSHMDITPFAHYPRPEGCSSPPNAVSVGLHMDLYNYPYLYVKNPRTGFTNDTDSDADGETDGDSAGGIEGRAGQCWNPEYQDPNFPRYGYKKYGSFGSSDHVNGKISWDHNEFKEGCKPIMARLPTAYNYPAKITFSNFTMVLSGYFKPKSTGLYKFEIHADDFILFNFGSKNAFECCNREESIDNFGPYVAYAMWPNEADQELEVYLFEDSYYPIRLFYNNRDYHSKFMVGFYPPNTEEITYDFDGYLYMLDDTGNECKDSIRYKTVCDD	5.38
PLU (Photorhabdus luminiscence) (protein) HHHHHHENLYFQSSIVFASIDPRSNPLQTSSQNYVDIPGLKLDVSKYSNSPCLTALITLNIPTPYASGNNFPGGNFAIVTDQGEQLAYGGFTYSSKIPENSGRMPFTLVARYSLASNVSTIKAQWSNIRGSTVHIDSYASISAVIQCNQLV	-0.211

Reported glycan array binding signal (z-score) ( EfCBM33A (Enterococcus faecalis), Q838S1 (protein) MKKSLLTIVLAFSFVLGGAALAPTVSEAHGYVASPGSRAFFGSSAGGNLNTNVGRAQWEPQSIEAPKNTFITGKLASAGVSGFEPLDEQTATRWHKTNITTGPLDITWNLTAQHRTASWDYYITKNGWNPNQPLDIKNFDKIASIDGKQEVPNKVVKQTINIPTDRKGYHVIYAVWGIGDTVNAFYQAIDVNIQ ) = 8.45
